Below is a list of entries, each paired with its recorded pIC50 value.
Tested on: ES8;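 note: growth inhibition of human ES8 cells, read out with a cell viability assay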
METHOD DESCRIPTION: cells
Assay type: functional, cell-based
STATED CONDITIONS: Homo sapiens
Description: SANGER: Inhibition of human ES8 cell growth in a cell viability assay.
pIC50: −log10 of the molar value.

In the examples that follow, each entry is paired with its recorded pIC50.
INSERT INTO measurements (compound, recorded_endpoint, val) VALUES
  ('Cc1[nH]c(/C=C2\C(=O)Nc3ccc(S(=O)(=O)Cc4c(Cl)cccc4Cl)cc32)c(C)c1C(=O)N1CCC[C@@H]1CN1CCCC1', 'pIC50', '< 5.70'),
  ('NC(=O)c1ncn([C@@H]2O[C@H](COP(=O)(O)O)[C@@H](O)[C@H]2O)c1N', 'pIC50', '< 2.70'),
  ('CC(O)(CS(=O)(=O)c1ccc(F)cc1)C(=O)Nc1ccc(C#N)c(C(F)(F)F)c1 (stereo not given) [BICALUTAMIDE]', 'pIC50', '< 5.99'),
  ('COc1cc(C)c(Sc2cnc(NC(=O)c3ccc(CNC(C)C(C)(C)C)cc3)s2)cc1C(=O)N1CCN(C(C)=O)CC1 (stereo not given)', 'pIC50', '< 4.99');

Next:
Kindly indicate its recorded pIC50. Item: `O=c1cc(N2CCOCC2)oc2c(-c3cccc4c3sc3ccccc34)cccc12`
< 5.70
